Reference for the values: paper PMC6835155

# STUDY_TARGET: LIMK2KD (Homo sapiens)
# Construct: The cDNA coding for LIMK2 residues 330 to 632 was PCR amplified; His6 (N, cleaved yes); made in house; host or cells: baculovirus; Sf9 for virus, TriEx insect cells for expression
# PROTOCOL_NOTES: Differential (dynamic) scanning fluorimetry (DSF) assay, LIMK2KD
# Format: binding
# ASSAY_SETUP: LIMK2KD, compound 10 µM, single shot; read-out: TM Shift LIMK2 (K)
READOUT: ΔTm at 10 µM (°C)

// known answers, use as guide
{"MOLECULE": "CC(C)(C)c1cnc(CSc2cnc(NC(=O)C3CCNCC3)s2)o1 [SNS-032 (BMS-387032)]", "ΔTm at 10 µM, °C": -0.3}
{"MOLECULE": "CNC(=O)c1cc(COc2nnc(Nc3ccc(Cl)cc3)c3ccoc23)ccn1 [Telatinib]", "ΔTm at 10 µM, °C": 3.3}
{"MOLECULE": "COCC(=O)NC/C=C/c1ccc2ncnc(Nc3ccc(Oc4ccc(C)nc4)c(C)c3)c2c1 [CP-724714]", "ΔTm at 10 µM, °C": -0.8}

I: C[C@H](Nc1ncnc2nc[nH]c12)c1cc2cccc(Cl)c2c(=O)n1-c1ccccc1 [IPI-145 (INK1197)]
II: O=c1c(-c2ccc(O)cc2)coc2cc(O)cc(O)c12 [Genistein]
III: O=C(Nc1ccc2[nH]nc(-c3ccncc3)c2c1)[C@@H]1CCN(CC(=O)N2CCN(c3ccc(-c4ncccn4)cc3)CC2)C1 [SCH772984]
IV: Nc1nc(N)c(N=O)c(OCC2CCCCC2)n1 [NU6027]
V: C1=C/COCc2cc(ccc2OCCN2CCCC2)Nc2nccc(n2)-c2cccc(c2)COC/1 [Pacritinib (SB1518), Pacritinib]
Input: Order by ΔTm at 10 µM, ascending. Answer format: the labels, in the requested order.
Output: IV, I, III, V, II
(IV: -0.9 °C, I: -0.6 °C, III: 0.1 °C, V: 1.5 °C, II: 4 °C)

###

# STUDY_TARGET: LIMK2KD (Homo sapiens)
# Construct: The cDNA coding for LIMK2 residues 330 to 632 was PCR amplified; His6 (N, cleaved yes); made in house; host or cells: baculovirus; Sf9 for virus, TriEx insect cells for expression
# PROTOCOL_NOTES: Differential (dynamic) scanning fluorimetry (DSF) assay, LIMK2KD
# Type: binding
# ASSAY_SETUP: LIMK2KD, compound 10 µM, single shot; read-out: TM Shift LIMK2 (K)
READOUT: ΔTm at 10 µM (°C)

{"SAMPLE_SMILES": "CN(C)CCOc1ccc(-c2nc(-c3ccncc3)c(-c3ccc4c(c3)CC/C4=N\\O)[nH]2)cc1", "READOUT": "ΔTm at 10 µM", "NUMERIC_READOUT": 1}
{"SAMPLE_SMILES": "Cc1nc(N)sc1-c1ccnc(Nc2ccc(N3CCOCC3)cc2)n1", "READOUT": "ΔTm at 10 µM", "NUMERIC_READOUT": 1.6}
{"SAMPLE_SMILES": "Cn1cnc2c(F)c(Nc3ccc(Br)cc3F)c(C(=O)NOCCO)cc21", "READOUT": "ΔTm at 10 µM", "NUMERIC_READOUT": 2.1}

1: Cc1cc([C@@H](C)Nc2ccccc2C(=O)O)c2nc(N3CCOCC3)cc(=O)n2c1
2: O=C(O)c1ccc(Nc2ncc3c(n2)-c2ccc(Cl)cc2C(c2c(F)cccc2F)=NC3)cc1
Input: Kindly identify the item with the lower ΔTm at 10 µM figure among these two: 1 and 2 Answer = label.
Output: 2
(2: 1 °C, 1: 1.8 °C)

###

# STUDY_TARGET: LIMK2KD (Homo sapiens)
# Construct: The cDNA coding for LIMK2 residues 330 to 632 was PCR amplified; His6 (N, cleaved yes); made in house; host or cells: baculovirus; Sf9 for virus, TriEx insect cells for expression
# PROTOCOL_NOTES: Differential (dynamic) scanning fluorimetry (DSF) assay, LIMK2KD
# Format: binding
# ASSAY_SETUP: LIMK2KD, compound 10 µM, single shot
READOUT: TM Shift LIMK2 (K)

// known answers, use as guide
{"COMPOUND": "Nc1nc(N)c2nc(-c3cccc(O)c3)cnc2n1 [TG100713]", "STUDY_TARGET": "LIMK2KD (Homo sapiens)", "UNIT_NAME": "K", "TM Shift LIMK2 (K)": 0.7}
{"COMPOUND": "CN[C@@H]1C[C@H]2O[C@@](C)([C@@H]1OC)n1c3ccccc3c3c4c(c5c6ccccc6n2c5c31)C(=O)N[C@H]4O [UCN-01]", "STUDY_TARGET": "LIMK2KD (Homo sapiens)", "UNIT_NAME": "K", "TM Shift LIMK2 (K)": 0.7}
{"COMPOUND": "CCC[C@H](NC(=O)/C(C#N)=C/c1cccc(Br)n1)c1ccccc1 [Degrasyn (WP1130), Degrasyn]", "STUDY_TARGET": "LIMK2KD (Homo sapiens)", "UNIT_NAME": "K", "TM Shift LIMK2 (K)": 0.7}

1: CN1CCN(c2cccc(Nc3nc4c(-c5ccc(S(C)(=O)=O)cc5)cccn4n3)c2)CC1 [CEP-33779]
2: Cn1cc(-c2ccc3ncc(Cc4ccc5ncccc5c4)n3n2)cn1 [NVP-BVU972]
3: COc1ccc(Cl)cc1NC(=O)Nc1cc(C)nc2ccccc12 [PQ 401]
4: Fc1cc(-c2cccc3ncc(-c4cnn(C5CCNCC5)c4)nc23)cc(F)c1CN1CCOCC1 [NVP-BSK805 2HCl]
Input: Order these by TM Shift LIMK2 (K), descending, and give the full ranking. Answer format: the labels, in the requested order.
Output: 2, 1, 4, 3

I: Cc1cc(F)c(Nc2ncnc3cc(OCc4ccccc4)ccc23)cc1O.Cl [ZM 323881 HCl]
II: CC(C)CCN1c2nc(Nc3cc(F)c(O)c(F)c3)ncc2N(C)C(=O)C1C (stereo not shown) [BI-D1870]
III: C=CC(=O)Nc1cccc(Nc2nc(Nc3ccc(Oc4ccnc(C(=O)NC)c4)cc3)ncc2F)c1 [CNX-774]
IV: O=C1Nc2ccc(I)cc2/C1=C/c1cc(Br)c(O)c(Br)c1 [GW5074]
Input: Order by TM Shift LIMK2 (K), ascending. Answer format: the labels, in the requested order.
Output: III, I, II, IV
(III: 1.2 K, I: 2.6 K, II: 3.9 K, IV: 5.6 K)

###

# STUDY_TARGET: LIMK2KD (Homo sapiens, UniProt P53671)
# Construct: The cDNA coding for LIMK2 residues 330 to 632 was PCR amplified; His6 (N, cleaved yes); made in house; host or cells: baculovirus; Sf9 for virus, TriEx insect cells for expression
# Sequence (P53671 330-632): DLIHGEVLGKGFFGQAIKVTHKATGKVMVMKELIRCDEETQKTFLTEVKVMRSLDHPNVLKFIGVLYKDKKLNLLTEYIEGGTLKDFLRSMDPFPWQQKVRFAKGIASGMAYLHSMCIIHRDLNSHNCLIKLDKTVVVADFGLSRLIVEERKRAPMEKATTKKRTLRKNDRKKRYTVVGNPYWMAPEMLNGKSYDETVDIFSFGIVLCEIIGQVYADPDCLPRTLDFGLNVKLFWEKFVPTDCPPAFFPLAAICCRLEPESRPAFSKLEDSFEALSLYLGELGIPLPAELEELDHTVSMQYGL
# PROTOCOL_NOTES: Differential (dynamic) scanning fluorimetry (DSF) assay, LIMK2KD
# Assay type: binding
# ASSAY_SETUP: LIMK2KD, compound 10 µM, single shot; read-out: TM Shift LIMK2 (K)
READOUT: ΔTm at 10 µM (°C)

{"SAMPLE_SMILES": "C[C@]1(O)C[C@@H](c2nc(-c3ccc4ccc(-c5ccccc5)nc4c3)c3c(N)nccn32)C1", "ΔTm at 10 µM [°C]": 0.9}
{"SAMPLE_SMILES": "C[C@@H]1COC(Nc2ccc3ncnc(Nc4ccc(OCc5nccs5)c(Cl)c4)c3c2)=N1", "ΔTm at 10 µM [°C]": 0.8}
{"SAMPLE_SMILES": "COc1cc2c(Oc3ccc4[nH]c(C)cc4c3F)ncnc2cc1OCCCN1CCCC1", "ΔTm at 10 µM [°C]": 0.5}
{"SAMPLE_SMILES": "Cc1cc2c(F)c(Oc3ncnn4cc(OC[C@@H](C)O)c(C)c34)ccc2[nH]1", "ΔTm at 10 µM [°C]": 0.3}
{"SAMPLE_SMILES": "C[C@@H]1CN(CC(=O)Nc2ccc3c(c2)Cc2cccc(-c4cc(=O)cc(N5CCOCC5)o4)c2S3)C[C@H](C)O1", "ΔTm at 10 µM [°C]": 0.6}

P: CN1CCN(c2ccc3nc(-c4c(N)c5c(F)cccc5[nH]c4=O)[nH]c3c2)CC1
Q: COCCNCc1ccc(-c2cc3nccc(Oc4ccc(NC(=S)NC(=O)Cc5ccc(F)cc5)cc4F)c3s2)nc1
Input: Kindly identify the item with the lower ΔTm at 10 µM figure among these two: P and Q Answer = label.
Output: Q
(Q: 1.1 °C, P: 3.8 °C)

###

# STUDY_TARGET: LIMK2KD (Homo sapiens, UniProt P53671)
# Construct: The cDNA coding for LIMK2 residues 330 to 632 was PCR amplified; His6 (N, cleaved yes); made in house; host or cells: baculovirus; Sf9 for virus, TriEx insect cells for expression
# PROTOCOL_NOTES: Differential (dynamic) scanning fluorimetry (DSF) assay, LIMK2KD
# Type: binding
# ASSAY_SETUP: LIMK2KD, compound 10 µM, single shot; read-out: TM Shift LIMK2 (K)
READOUT: ΔTm at 10 µM (°C)

{"COMPOUND": "CS(=O)(=O)c1ccc(-c2cnc(N)c(C(=O)Nc3ccccc3)n2)cc1 [VE-821]", "READOUT": "ΔTm at 10 µM", "UNIT_NAME": "°C", "NUMERIC_READOUT": 1.5}
{"COMPOUND": "CN1CCN(CCOc2cc(OC3CCOCC3)c3c(Nc4c(Cl)ccc5c4OCO5)ncnc3c2)CC1 [Saracatinib (AZD0530), Saracatinib]", "READOUT": "ΔTm at 10 µM", "UNIT_NAME": "°C", "NUMERIC_READOUT": 0.8}
{"COMPOUND": "O=C(NOCC1CC1)c1ccc(F)c(F)c1Nc1ccc(I)cc1Cl [PD184352 (CI-1040)]", "READOUT": "ΔTm at 10 µM", "UNIT_NAME": "°C", "NUMERIC_READOUT": 0.9}
{"COMPOUND": "O=c1c(O)c(-c2ccc(O)c(O)c2)oc2cc(O)cc(O)c12 [Quercetin]", "READOUT": "ΔTm at 10 µM", "UNIT_NAME": "°C", "NUMERIC_READOUT": 3.9}
